# EXPERIMENT DESCRIPTION: Serum biochemical markers after treatment of MNU-induced rats
# Assay type: in vivo, Wistar rats
# PROTOCOL CONDITIONS: serum, dose 50 mg/kg
EXPERIMENTAL ENDPOINT: ALT (A/L)
Answers are plain numbers, in A/L.

Below: 2 compounds and their reported ALT (A/L).
COMPOUND	EXPERIMENTAL ENDPOINT	REPORTED MEASUREMENT
CN(N=O)C(N)=O [MNU, Methyl nitrosourea, reference compound]	ALT (A/L)	157.31
CC(=O)c1cc(C(=O)O[C@@H]2/C=C/C(=O)O[C@@H](O)CCC/C=C/[C@@H]3C[C@H](O)C[C@H]32)ccc1OCCN1CCCC(O)C1=O (stereo partly drawn)	ALT (A/L)	59.65

In the following, a different compound is considered.
Per the record, CC(=O)c1cc(C(=O)O[C@@H]2/C=C/C(=O)O[C@@H](O)CCC/C=C/[C@@H]3C[C@H](O)C[C@H]32)ccc1OCCS(=O)(=O)O has ALT (A/L) of 59.74
